Attribution: the OligoGym collection

# assay system: VDAC3; further: reference of the scale not given here
# test details: pooled miR-30 sensor sort-seq; sequence = guide strand
# protocol conditions: shRNA
measured attribute: sensor-assay potency score (higher = more potent)

What sensor-assay potency score (higher = more potent) appears in the records for this sequence with VDAC3? TTCAGGTCTATCTTGACCATGC
-0.432

Lab note: need sensor-assay potency score (higher = more potent) with VDAC3 for entry TCCTTTGTTGAAGACATCCTTA , please look it up.
-0.879

Hello, I am looking for reported sensor-assay potency score (higher = more potent) with VDAC3 for TTATATTTGGTTTCTAGGTTGC . Could you help?
-0.0958

Field: sensor-assay potency score (higher = more potent) (VDAC3). Entry: TATCAGTGTAAGCATGACCAGA
-0.976

Kindly state the measured sensor-assay potency score (higher = more potent) obtained for TTGGTTTTCAGGTCTATCTTGA with VDAC3.
0.398

Enter reported sensor-assay potency score (higher = more potent) observed with VDAC3 for TTTCAGGTCTATCTTGACCATG
-1.45
